- Test system: human lymphoma Daudi B cells
- assay-details: CCK8 growth inhibition, Daudi B
- Format: cell-based
- condition: CCK8 method; read-out: IC50 of inhibitory activity on tumor cell growth, Daudi B
pIC50: −log10 of the molar value.
measured-quantity: pIC50

[P] CCCCOc1nc(N)c2nc(O)n(Cc3cn(CCOCCOCCOCCNC(=S)N4CCC(C5CCNc6c(C(N)=O)c(-c7ccc(Oc8ccccc8)cc7)nn65)CC4)nn3)c2n1 (single isomer, unassigned) [GY135]
[Q] C=C(CC(=O)NCCOCCOCCOCCn1cc(Cn2c(O)nc3c(N)nc(OCCCC)nc32)nn1)C(=O)N1CCC(C2CCNc3c(C(N)=O)c(-c4ccc(Oc5ccccc5)cc4)nn32)CC1 (single isomer, unassigned) [GY132]
Challenge: From the items above, decide which of P and Q has the lower pIC50 reading. Indicate which entry you chose by stating its label.
Response given: P
(P: 4.84, Q: 5.27)

[A] C=C(CC(=O)NCCOCCOCCOCCn1cc(Cn2c(O)nc3c(N)nc(OCCCC)nc32)nn1)C(=O)N1CCC(C2CCNc3c(C(N)=O)c(-c4ccc(Oc5ccccc5)cc4)nn32)CC1 (single isomer, unassigned) [GY137]
[B] CCCCOc1nc(N)c2nc(O)n(Cc3cn(CCOCCOCCOCCNC(=S)N4CCC(C5CCNc6c(C(N)=O)c(-c7ccc(Oc8ccccc8)cc7)nn65)CC4)nn3)c2n1 (single isomer, unassigned) [GY134]
Challenge: Out of A and B , name the one with the higher pIC50. Indicate which entry you chose by stating its label.
Response given: B

* * *

- System: LLC
- assay-details: CCK8 growth inhibition, LLC
- Assay type: cell-based
- condition: Lewis lung carcinoma; CCK8 method; read-out: IC50 of inhibitory activity on tumor cell growth, LLC
measured-quantity: IC50 (µM)
Expressed in µM, but write only the number.

Challenge: Item under review: CCCCOc1nc(N)c2nc(O)n(Cc3cn(CCOCCOCCOCCNC(=S)N4CCCC(n5nc(-c6ccc(Oc7ccccc7)cc6)c6c(N)ncnc65)C4)nn3)c2n1 (centres unmarked) . Reported IC50?
Response given: 18.8

Query compound follows.
Challenge: Item under review: CCCCOc1nc(N)c2nc(O)n(Cc3cn(CCOCCOCCOCCNC(=S)Nc4cc(Nc5nccc(-c6cn(C)c7ccccc67)n5)c(OC)cc4N(C)CCN(C)C)nn3)c2n1 . Reported IC50?
Response given: 15.3

* * *

- System: Murine breast cancer 4T1 cells
- assay-details: CCK8 growth inhibition, 4T1
- Format: cell-based
- condition: Mus musculus, CCK8 method, 24 hrs (or 36, 72 hrs), read-out: IC50 of inhibitory activity on tumor cell growth, 4T1
measured-quantity: IC50 (µM)

Challenge: Item under review: CCCCOc1nc(N)c2nc(O)n(Cc3cn(CCOCCOCCOCCNC(=S)Nc4cc(Nc5nccc(-c6cn(C)c7ccccc67)n5)c(OC)cc4N(C)CCN(C)C)nn3)c2n1 . Reported IC50?
Response given: 17.3

Challenge: Item under review: CCCCOc1nc(N)c2nc(O)n(Cc3cn(CCOCCOCCOCCNC(=S)N4CCCC(n5nc(-c6ccc(Oc7ccccc7)cc6)c6c(N)ncnc65)C4)nn3)c2n1 (centres unmarked) . Reported IC50?
Response given: 1.45

[a] CCCCOc1nc(N)c2nc(O)n(Cc3cn(CCCCN4CCN(CCCNC(=S)N5CCCC(n6nc(-c7ccc(Oc8ccccc8)cc7)c7c(N)ncnc76)C5)CC4)nn3)c2n1 (centres unmarked)
[b] C=C(CC(=O)NCCOCCOCCOCCn1cc(Cn2c(O)nc3c(N)nc(OCCCC)nc32)nn1)C(=O)N1CCC[C@@H](n2nc(-c3ccc(Oc4ccccc4)cc3)c3c(N)ncnc32)C1
Challenge: From the items above, decide which of a and b has the lower IC50 reading. Indicate which entry you chose by stating its label.
Response given: a
(a: 0.78 µM, b: 2.86 µM)

* * *

- Test system: human lymphoma Daudi B cells
- assay-details: CCK8 growth inhibition, Daudi B
- Type: cell-based
- condition: Homo sapiens, Daudi, CCK8 method; read-out: IC50 of inhibitory activity on tumor cell growth, Daudi B
pIC50: −log10 of the molar value.
measured-quantity: pIC50

Challenge: Item under review: CCCCOc1nc(N)c2nc(O)n(Cc3cn(CCCCN4CCN(CCCNC(=S)N5CCCC(n6nc(-c7ccc(Oc8ccccc8)cc7)c7c(N)ncnc76)C5)CC4)nn3)c2n1 (stereo not drawn) [GY161] . Reported pIC50?
Response given: 4.93

[I] C=C(CC(=O)NCCOCCOCCOCCn1cc(Cn2c(O)nc3c(N)nc(OCCCC)nc32)nn1)C(=O)N1CCC[C@@H](n2nc(-c3ccc(Oc4ccccc4)cc3)c3c(N)ncnc32)C1 [GY131]
[II] CCCCOc1nc(N)c2nc(O)n(Cc3cn(CCOCCOCCOCCNC(=S)N4CCCC(n5nc(-c6ccc(Oc7ccccc7)cc6)c6c(N)ncnc65)C4)nn3)c2n1 (stereo not drawn) [GY112]
Challenge: Out of I and II , name the one with the higher pIC50. Indicate which entry you chose by stating its label.
Response given: II

* * *

- System: human lymphoma Raji cells
- assay-details: CCK8 growth inhibition, Raji
- Type: cell-based
- condition: Homo sapiens, Raji, CCK8 method; read-out: IC50 of inhibitory activity on tumor cell growth, Raji
pIC50: −log10 of the molar value.
measured-quantity: pIC50

Examples from the recorded data:
Challenge: Test system human lymphoma Raji cells; read-out pIC50; what value for CCCCOc1nc(N)c2nc(O)n(Cc3cn(CCOCCOCCOCCNC(=S)N4CCCC(n5nc(-c6ccc(Oc7ccccc7)cc6)c6c(N)ncnc65)C4)nn3)c2n1 (stereo not shown) ?
Response given: 4.97

Challenge: Test system human lymphoma Raji cells; read-out pIC50; what value for CCCCOc1nc(N)c2nc(O)n(Cc3cn(CCCCN4CCN(CCCNC(=S)N5CCCC(n6nc(-c7ccc(Oc8ccccc8)cc7)c7c(N)ncnc76)C5)CC4)nn3)c2n1 (stereo not shown) ?
Response given: 4.79

[I] C=C(CC(=O)NCCOCCOCCOCCn1cc(Cn2c(O)nc3c(N)nc(OCCCC)nc32)nn1)C(=O)N1CCC[C@@H](n2nc(-c3ccc(Oc4ccccc4)cc3)c3c(N)ncnc32)C1
[II] CCCCOc1nc(N)c2nc(O)n(Cc3cn(CCOCCOCCOCCNC(=S)N4CCC(C5CCNc6c(C(N)=O)c(-c7ccc(Oc8ccccc8)cc7)nn65)CC4)nn3)c2n1 (single isomer, unassigned)
Challenge: Out of I and II , name the one with the higher pIC50. Indicate which entry you chose by stating its label.
Response given: II

* * *

- measurement-target: TLR7 (Homo sapiens, UniProt Q9NYK1)
- Construct: host or cells: HEK-Blue hTLR7 cells (HEK293-derived SEAP reporter line)
- Sequence (Q9NYK1 27-1049): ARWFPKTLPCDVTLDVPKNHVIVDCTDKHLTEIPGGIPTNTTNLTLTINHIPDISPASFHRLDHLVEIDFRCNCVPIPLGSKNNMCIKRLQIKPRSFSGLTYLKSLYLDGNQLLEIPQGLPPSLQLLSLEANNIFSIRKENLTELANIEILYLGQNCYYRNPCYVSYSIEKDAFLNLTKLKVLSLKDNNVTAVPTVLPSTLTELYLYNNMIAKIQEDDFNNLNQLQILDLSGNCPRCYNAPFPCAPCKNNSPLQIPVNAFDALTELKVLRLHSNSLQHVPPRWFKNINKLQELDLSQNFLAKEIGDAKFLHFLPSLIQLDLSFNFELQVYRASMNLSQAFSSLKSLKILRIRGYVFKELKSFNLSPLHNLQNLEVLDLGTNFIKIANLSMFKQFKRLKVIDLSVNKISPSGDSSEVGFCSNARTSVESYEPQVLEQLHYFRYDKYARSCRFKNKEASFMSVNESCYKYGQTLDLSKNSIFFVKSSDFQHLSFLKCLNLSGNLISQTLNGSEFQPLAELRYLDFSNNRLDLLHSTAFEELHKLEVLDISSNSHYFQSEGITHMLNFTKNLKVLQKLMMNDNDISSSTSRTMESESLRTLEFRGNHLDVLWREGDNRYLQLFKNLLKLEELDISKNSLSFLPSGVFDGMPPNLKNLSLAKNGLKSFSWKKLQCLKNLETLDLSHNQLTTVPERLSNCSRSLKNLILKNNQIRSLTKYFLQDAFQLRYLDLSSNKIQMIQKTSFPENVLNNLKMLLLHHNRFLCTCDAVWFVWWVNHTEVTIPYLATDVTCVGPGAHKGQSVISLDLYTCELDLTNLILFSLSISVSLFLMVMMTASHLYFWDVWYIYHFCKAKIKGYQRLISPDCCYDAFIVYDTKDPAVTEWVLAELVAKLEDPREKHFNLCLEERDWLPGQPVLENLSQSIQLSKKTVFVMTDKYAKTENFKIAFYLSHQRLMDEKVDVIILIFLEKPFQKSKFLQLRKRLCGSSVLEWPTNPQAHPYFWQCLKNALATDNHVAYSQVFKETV
- assay-details: Detection of TLR7 activation (HEK-Blue Detection), SEAP reporter
- Type: cell-based
- condition: HEK-Blue hTLR7 cells, 6-16 hrs, absorbance 650 nm; read-out: TLR7(EC50/μM)
measured-quantity: EC50 (µM)

Challenge: Item under review: CCCCOc1nc(N)c2nc(O)n(Cc3cn(CCOCCOCCOCCNC(=S)N4CCCC(n5nc(-c6ccc(Oc7ccccc7)cc6)c6c(N)ncnc65)C4)nn3)c2n1 (stereo not drawn) . Reported EC50?
Response given: 2.65

[A] CCCCOc1nc(N)c2nc(O)n(Cc3cn(CCCCCCCCCCCCCCC(=O)O)nn3)c2n1
[B] CCCCOc1nc(N)c2nc(O)n(Cc3cn(CCOCCOCCOCCNC(=S)Nc4cc(Nc5nccc(-c6cn(C)c7ccccc67)n5)c(OC)cc4N(C)CCN(C)C)nn3)c2n1
Challenge: Out of A and B , name the one with the higher EC50. Indicate which entry you chose by stating its label.
Response given: B
(B: 1.06 µM, A: 0.29 µM)

All values here come from patent US12440571B2.
